# credit: ChEMBL document CHEMBL1143550

Record set of IC50 for target or system Cathepsin K (Homo sapiens).

# Compound, Experimental Target, Unit Abbrev, IC50
data = [
    ("CCCC[C@H](NC(=O)O[C@@H]1C(=O)OCC1(C)C)C(=O)C(=O)N[C@H](C)c1ccccc1", "Cathepsin K (Homo sapiens)", "nM", 3),
    ("CCCC[C@H](NC(=O)OC1CC2CCC1C2)C(=O)C(=O)N[C@H](C)c1ccccc1 (stereo partly drawn)", "Cathepsin K (Homo sapiens)", "nM", 26),
    ("CCCC[C@H](NC(=O)OC1C2(C)CCC(C2)C1(C)C)C(=O)C(=O)N[C@H](C)c1ccccc1 (stereo partly drawn)", "Cathepsin K (Homo sapiens)", "nM", 5.7),
]

* * *

Record set of IC50 for target or system Cathepsin B (Homo sapiens, UniProt P07858).

# Molecule, Unit Abbrev, Bound Sign, IC50
rows = [
    ("CCCC[C@H](NC(=O)O[C@@H]1C(=O)OCC1(C)C)C(=O)C(=O)N[C@H](C)c1ccccc1", "µM", ">", 0.5),
    ("CCCC[C@H](NC(=O)O[C@H]1CCCc2ccccc21)C(=O)C(=O)N[C@H](C)c1ccccc1", "µM", ">", 2),
    ("CCCC[C@H](NC(=O)O[C@@H]1C(=O)NCC1(C)C)C(=O)C(=O)N[C@H](C)c1ccccc1", "µM", "=", 1.4),
    ("CCCC[C@H](NC(=O)OC1C2CC3CC(C2)CC1C3)C(=O)C(=O)N[C@H](C)c1ccccc1 (stereo not given in full)", "µM", ">", 5),
    ("CCCC[C@H](NC(=O)OC1C2(C)CCC(C2)C1(C)C)C(=O)C(=O)N[C@H](C)c1ccccc1 (stereo not given in full)", "µM", "=", 12),
]

* * *

Recorded Vd by entry
# Protocol Details: Steady state volume of distribution after intravenous administration of 2.5 mg/kg in rats was determined
# Format: ADME, organism-based
# Design: dose 2.5 mg/kg, route intravenous
# Test Settings: rat, in vivo, read-out: Vss

# Cpd Smiles, Vd [L/kg]
data = [
    ("CCCC[C@H](NC(=O)O[C@@H]1C(=O)NCC1(C)C)C(=O)C(=O)N[C@H](C)c1ccccc1", 1.3),
    ("CCCC[C@H](NC(=O)O[C@@H]1C(=O)OCC1(C)C)C(=O)C(=O)N[C@H](C)c1ccccc1", 3.4),
]

* * *

# Protocol Details: solubility in fasted state stimulated intestinal fluid (pH6.8)
# Type: ADME
# Test Settings: rat, fasted state simulated intestinal fluid, pH 6.8

# Cpd Smiles, solubility [mg/mL]
records = [
    ("CCCC[C@H](NC(=O)O[C@@H]1C(=O)OCC1(C)C)C(=O)C(=O)N[C@H](C)c1ccccc1", 0.24),
]

* * *

# Protocol Details: Equilibrium solubility in fasted state-simulated intestinal fluid at pH 6.8 was determined
# Assay type: ADME

# Cpd Smiles, solubility thermodynamic
data = [
    ("CCCC[C@H](NC(=O)O[C@@H]1C(=O)NCC1(C)C)C(=O)C(=O)N[C@H](C)c1ccccc1", "800 µg/mL"),
]

* * *

Target chain: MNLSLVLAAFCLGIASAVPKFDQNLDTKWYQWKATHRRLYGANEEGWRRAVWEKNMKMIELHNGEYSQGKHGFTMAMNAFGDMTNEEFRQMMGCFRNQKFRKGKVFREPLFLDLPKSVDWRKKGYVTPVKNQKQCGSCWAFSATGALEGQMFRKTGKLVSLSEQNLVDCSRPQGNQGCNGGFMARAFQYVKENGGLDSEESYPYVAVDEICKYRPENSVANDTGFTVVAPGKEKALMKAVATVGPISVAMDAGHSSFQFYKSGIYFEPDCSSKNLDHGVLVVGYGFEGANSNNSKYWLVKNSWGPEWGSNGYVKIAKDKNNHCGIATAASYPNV
Recorded IC50 by entry
Metric: IC50 (µM)

# Compound, Quantitative Readout
data = [
    ("CCCC[C@H](NC(=O)O[C@@H]1C[C@H](C)C[C@H](C)C1)C(=O)C(=O)N[C@H](C)c1ccccc1", 2.8),
    ("CCCC[C@H](NC(=O)O[C@H]1CCc2ccccc21)C(=O)C(=O)N[C@H](C)c1ccccc1", 0.29),
    ("CCCC[C@H](NC(=O)OC1CC2CCC1C2)C(=O)C(=O)N[C@H](C)c1ccccc1 (some centres undefined)", 0.19),
    ("CCCC[C@H](NC(=O)O[C@@H]1C(=O)OCC1(C)C)C(=O)C(=O)N[C@H](C)c1ccccc1", 0.079),
]
